Recorded measurements of flash point, one per entry

compound: CN(C)CCO [2-dimethylaminoethanol]
flash point: 41 °C

compound: CCCCC(CC)CO (stereo not given) [2-ethyl-1-hexanol]
flash point: 74 °C

compound: Cc1ccc(C)cc1 [p-xylene]
flash point: 25 °C

compound: CC[N+](=O)[O-] [nitroethane]
flash point: 28 °C

compound: CCC(C)(C)CC(C)(C)C [2,2,4,4-tetramethylhexane]
flash point: 31 °C

compound: CCCCC#N [pentanenitrile]
flash point: 32 °C

compound: CCCCCCCCCOC=O [nonylformate]
flash point: 88 °C

compound: Cc1cc(C)cc(F)c1 [1-fluoro-3,5-dimethylbenzene]
flash point: 35 °C

compound: CCCCCCCC#N [octanenitrile]
flash point: 74 °C

compound: C=CC(=O)OCC [ethylacrylate]
flash point: 8 °C

compound: CCCC(C)CC(=O)O (stereo not given) [3-methylhexanoicacid]
flash point: 103 °C

compound: CCCCCCS [1-hexanethiol]
flash point: 30 °C

compound: CC(C)(C)C#N [2,2-dimethylpropanenitrile]
flash point: 4 °C

compound: CCC(C)O (stereo not given) [2-butanol]
flash point: 24 °C

compound: CCCCCCCC(C)C [2-methylnonane]
flash point: 38 °C

compound: C=C(C)CCl [3-chloro-2-methyl-1-propene]
flash point: -12 °C

compound: CC(C)c1ccccc1 [cumene]
flash point: 31 °C

compound: C=CCC1CCCC1 [allylcyclopentane]
flash point: 12 °C

compound: CCC(C)C(C)C(C)C (stereo not given) [2,3,4-trimethylhexane]
flash point: 15 °C

compound: CCCCC1CCCC1=O (stereo not given) [2-butylcyclopentanone]
flash point: 68 °C

compound: SCc1ccccc1 [benzylmercaptan]
flash point: 70 °C

compound: C=CCCCCC=C [1,7-octadiene]
flash point: 5 °C

compound: CC(C)c1cccc(C(C)C)c1N [2,6-diisopropylaniline]
flash point: 123 °C

compound: CCCC(=O)OC(=O)CCC [butanoicanhydride]
flash point: 82 °C

compound: C=CCCC(C)C [5-methyl-1-hexene]
flash point: -10 °C

compound: CC(C)CCC(=O)O [4-methylpentanoicacid]
flash point: 97 °C

compound: CCCC(C)CO (stereo not given) [2-methyl-1-pentanol]
flash point: 51 °C

compound: CCCC(=O)OCCC(C)C [isopentylbutanoate]
flash point: 59 °C

compound: OCCCCl [3-chloro-1-propanol]
flash point: 73 °C

compound: CCCCCC(C)CCC (stereo not given) [4-methylnonane]
flash point: 38 °C

* * *

# flash point >= 10 °C gives met, anything below gives not met

compound: CCc1ccsc1 [3-ethylthiophene]
assigned-label: met

compound: C=CCCCCCCCCO [9-decen-1-ol]
assigned-label: met

compound: c1ccncc1 [pyridine]
assigned-label: met

compound: CCCC(C)(C)C [2,2-dimethylpentane]
assigned-label: not met

compound: CCC(=O)OC(C)c1ccccc1 (centres undefined) [1-phenylethylpropionate]
assigned-label: met

compound: C[C@H]1CCCC[C@H]1O (relative stereo) [cis-2-methylcyclohexanol]
assigned-label: met

compound: CCC(CC)CO [2-ethyl-1-butanol]
assigned-label: met

compound: CCNCC [diethylamine]
assigned-label: not met

compound: CCCC(CC)CC [3-ethylhexane]
assigned-label: not met

compound: CCC(C)C(C)(C)C(C)C (centres undefined) [2,3,3,4-tetramethylhexane]
assigned-label: met

compound: CC(=O)OC(C)(C)C [tert-butylacetate]
assigned-label: not met

compound: CC(C)(C)O [tert-butylalcohol]
assigned-label: met

compound: Cc1cccc(F)c1 [3-fluorotoluene]
assigned-label: met

compound: CCC(C)C [2-methylbutane]
assigned-label: not met

compound: CCCCCC(=O)CCCCC [6-undecanone]
assigned-label: met

compound: CC(C)CC(=O)OC(=O)CC(C)C [3-methylbutanoicanhydride]
assigned-label: met

compound: COC(CBr)OC [2-bromo-1,1-dimethoxyethane]
assigned-label: met

compound: O=CC1CCCC1 [cyclopentanecarboxaldehyde]
assigned-label: met

compound: CCCCC(=O)OC(=O)CCCC [pentanoicanhydride]
assigned-label: met

compound: CC(C)=CCCC(C)CC=O (centres undefined) [3,7-dimethyl-6-octenal]
assigned-label: met

compound: OCc1ccccc1 [benzylalcohol]
assigned-label: met

compound: C1=CC2C=CC1C2 [2,5-norbornadiene]
assigned-label: not met

compound: CC(C)CCCO [4-methyl-1-pentanol]
assigned-label: met

compound: C1COCO1 [1,3-dioxolane]
assigned-label: not met

compound: CCCCCCCCC(C)=O [2-decanone]
assigned-label: met

compound: C=CCCCCC(C)C [7-methyl-1-octene]
assigned-label: met

compound: c1ccoc1 [furan]
assigned-label: not met

compound: CCC(C)N (centres undefined) [sec-butylamine]
assigned-label: not met
